Examples of molecules with documented IC50 follow.
Tested on: MCF7
method summary: Antiproliferative activity against human MCF7 cells incubated for 72 hrs by MTT assay
Format: functional, cell-based
applied conditions: MCF7, 72 h
Your answer is read as µM, so omit the unit and give the number.

>  <chemical string>
C=CC(=O)Nc1cccc(Nc2nc(Nc3cn(C)nc3C(F)(F)F)nc3ccc(Cl)cc23)c1

>  <system>
MCF7

>  <IC50, µM>
5.72

$$$$

Could you now consider this next molecule?
Task: Fill in the blank: the reported IC50 of `C=CC(=O)Nc1ccc(Nc2nc(Nc3cnn(C)c3)nc3ccc(Cl)cc23)cc1` is ____.
Output: 3.58

---

Tested on: MCF7
method summary: Antiproliferative activity against human MCF7 cells incubated for 72 hrs by MTT assay
Assay type: functional, cell-based
applied conditions: MCF7, 72 h
API: label(entry) gives Condition met if the entry's IC50 is strictly smaller than 4000 nM; on equality or larger values it gives Condition not met.

Please review the following examples before continuing.
>  <chemical string>
C=CC(=O)Nc1cccc(Nc2nc(Nc3cnn(C)c3)nc3cc(C)ccc23)c1

>  <classification>
Condition met

$$$$
>  <chemical string>
C=CC(=O)Nc1cccc(Nc2nc(Nc3cnn(C)c3)nc3ccc(F)cc23)c1

>  <classification>
Condition met

$$$$
>  <chemical string>
C=CC(=O)Nc1cccc(Nc2nc(Nc3cnn(C)c3)nc3ccc(OC)cc23)c1

>  <classification>
Condition met

$$$$
>  <chemical string>
C=CC(=O)Nc1cccc(Nc2nc(Nc3ccc(N(C)CCN(C)C)cc3)nc3ccc(Cl)cc23)c1

>  <classification>
Condition met

$$$$
>  <chemical string>
C=CC(=O)Nc1cccc(Nc2nc(Nc3cnn(C)c3)nc3cc(Cl)ccc23)c1

>  <classification>
Condition met

$$$$
>  <chemical string>
C=CC(=O)Nc1cccc(Nc2nc(Nc3cnn(C)c3)nc3ccc(I)cc23)c1

>  <classification>
Condition met

$$$$
>  <chemical string>
C=CC(=O)Nc1cccc(Nc2nc(Nc3cccc(C)c3)nc3ccc(Cl)cc23)c1

>  <classification>
Condition not met

$$$$
>  <chemical string>
C=CC(=O)Nc1cccc(Nc2nc(Nc3cnn(C)c3)nc3ccccc23)c1

>  <classification>
Condition not met

$$$$

Shifting focus to the molecule that follows.
Task: Please let me know if `C=CC(=O)Nc1cccc(Nc2nc(Nc3ccc(C)cc3)nc3ccc(Cl)cc23)c1` shows IC50 below 4000 nM.
Output: Condition not met

---

Tested on: MCF7
method summary: Antiproliferative activity against human MCF7 cells incubated for 72 hrs by MTT assay
Format: functional, cell-based
applied conditions: MCF7, 72 h
Examples of compounds with documented pIC50 follow.
Note: pIC50 values are expressed as the negative base-10 logarithm of concentration in M.

>  <chemical string>
C=CC(=O)Nc1cccc(Nc2nc(Nc3ccc(-n4cccn4)cc3)nc3ccc(Cl)cc23)c1

>  <result value>
5.32

$$$$

Task: Fill in the blank: the reported pIC50 of `C=CC(=O)Nc1cccc(Nc2nc(NCCn3cccn3)nc3ccc(Cl)cc23)c1` is ____.
Output: 4.86

Task: Fill in the blank: the reported pIC50 of `C=CC(=O)Nc1cccc(Nc2nc(Nc3cnn(CC(F)(F)F)c3)nc3ccc(Cl)cc23)c1` is ____.
Output: 5.17

Task: Fill in the blank: the reported pIC50 of `C=CC(=O)Nc1ccccc1Nc1nc(Nc2cnn(C)c2)nc2ccc(Cl)cc12` is ____.
Output: 5.37

Task: Fill in the blank: the reported pIC50 of `C=CC(=O)Nc1cc(Nc2nccc(-c3cn(C)c4ccccc34)n2)c(OC)cc1N(C)CCN(C)C` is ____.
Output: 5.94

---

Tested on: MCF7
method summary: Antiproliferative activity against human MCF7 cells incubated for 72 hrs by MTT assay
Format: functional, cell-based
applied conditions: MCF7, 72 h
Examples of molecules with documented IC50 follow.
Your answer is read as µM, so omit the unit and give the number.

Field: example entries. Status: answers known.
>  <chemical string>
C=CC(=O)Nc1cccc(Nc2nc(Nc3cnn(CC)c3)nc3ccc(Cl)cc23)c1

>  <readout unit>
µM

>  <IC50>
1.27

$$$$
>  <chemical string>
C=CC(=O)Nc1cccc(Nc2nc(Nc3cnn(C4CCOCC4)c3)nc3ccc(Cl)cc23)c1

>  <readout unit>
µM

>  <IC50>
2.91

$$$$

Task: Fill in the blank: the reported IC50 of `C=CC(=O)Nc1cccc(Nc2nc(Nc3ccccc3C)nc3ccc(Cl)cc23)c1` is ____.
Output: 8.26

---

System: MCF7
method summary: Antiproliferative activity against human MCF7 cells incubated for 72 hrs by MTT assay
Type: functional, cell-based
applied conditions: MCF7, 72 h
Examples of compounds with documented IC50 follow.
Answer format reminder: number followed by unit.

Field: example entries. Status: answers known.
>  <chemical string>
C=CC(=O)Nc1cccc(Nc2nc(Nc3cnn(C)c3)nc3cccc(F)c23)c1

>  <system>
MCF7

>  <parameter>
IC50

>  <result value>
9.16 µM

$$$$
>  <chemical string>
C=CC(=O)Nc1cccc(Nc2nc(Nc3cn[nH]c3)nc3ccc(Cl)cc23)c1

>  <system>
MCF7

>  <parameter>
IC50

>  <result value>
5.37 µM

$$$$
>  <chemical string>
C=CC(=O)Nc1cccc(Nc2nc(Nc3cnn(C)c3)nc3c(Cl)cccc23)c1

>  <system>
MCF7

>  <parameter>
IC50

>  <result value>
1.72 µM

$$$$

Task: Given the entry `C=CC(=O)Nc1cccc(Nc2nc(Nc3cnn(C)c3)nc3cccc(Cl)c23)c1` , what IC50 was observed with MCF7?
Output: 1.85 µM

Task: Given the entry `C=CC(=O)Nc1cccc(Nc2nc(Nc3cnn(Cc4ccccc4)c3)nc3ccc(Cl)cc23)c1` , what IC50 was observed with MCF7?
Output: 1.3 µM

Task: Given the entry `C=CC(=O)Nc1cccc(Nc2nc(Nc3cnn(C)c3)nc3cc(OC)ccc23)c1` , what IC50 was observed with MCF7?
Output: 1.34 µM

Task: Given the entry `CCC(=O)Nc1cccc(Nc2nc(Nc3cnn(C)c3)nc3ccc(Cl)cc23)c1` , what IC50 was observed with MCF7?
Output: 4.68 µM

Task: Given the entry `C=CC(=O)Nc1cccc(Nc2nc(Nc3cnn(C)c3)nc3c(F)cccc23)c1` , what IC50 was observed with MCF7?
Output: 3.74 µM

Task: Given the entry `C=CC(=O)Nc1cccc(Nc2nc(Nc3cc(C(F)(F)F)n(C)n3)nc3ccc(Cl)cc23)c1` , what IC50 was observed with MCF7?
Output: 10 µM

Task: Given the entry `C=CC(=O)Nc1cccc(Nc2nc(Nc3c(C)nn(C)c3C)nc3ccc(Cl)cc23)c1` , what IC50 was observed with MCF7?
Output: 4.4 µM

Task: Given the entry `C=CC(=O)Nc1cccc(Nc2nc(Nc3cnn(C)c3)nc3cc(C(F)(F)F)ccc23)c1` , what IC50 was observed with MCF7?
Output: 1.16 µM

---

System: MCF7
method summary: Antiproliferative activity against human MCF7 cells incubated for 72 hrs by MTT assay
Type: functional, cell-based
applied conditions: MCF7, 72 h
Examples of compounds with documented pIC50 follow.
Note: pIC50 values are expressed as the negative base-10 logarithm of concentration in M.

>  <chemical string>
C=CC(=O)Nc1cccc(Nc2nc(Nc3cnn(C)c3)nc3ccc(Cl)cc23)c1

>  <pIC50>
5.91

$$$$

Task: Given the entry `C=CC(=O)Nc1cccc(Nc2nc(Nc3cn(CC)nc3C)nc3ccc(Cl)cc23)c1` , what pIC50 was observed with MCF7?
Output: 4.97

Task: Given the entry `C=CC(=O)Nc1cccc(Nc2nc(Nc3cnn(C)c3C)nc3ccc(Cl)cc23)c1` , what pIC50 was observed with MCF7?
Output: 5.49

Task: Given the entry `C=CC(=O)Nc1cccc(Nc2nc(Nc3cnn(CCOC)c3)nc3ccc(Cl)cc23)c1` , what pIC50 was observed with MCF7?
Output: 5.18
